tested on: MOLT-4 leukemia; test: NCI-60 one-dose screen, 48 h (100 = growth as untreated, 0 = no growth, -100 = all killed); conditions: 10 µM unless noted
The panel holds about 83,000 compounds, 20% with a hit somewhere; the sample as a whole holds those more often.
assay_endpoint: growth (%)
Unit % implied. Number only.

Before answering, review these 9 worked examples.
CN1CCN(c2ccc3nc(-c4[nH]ncc4Nc4ncnc5[nH]ccc45)[nH]c3c2)CC1 :: -13.6
O=C1/C(=C\c2ccc(Br)o2)SC(=S)N1CCc1ccc(O)cc1 :: 64.3
O=C(c1ccccc1)C(CN1CCOCC1)c1ccccc1 (stereo not given) :: 19.2
COc1ccc(OC)c(-c2c(C#N)c(-c3ccco3)nc3c2c(-c2ccccc2)nn3-c2ccccc2)c1 :: 96.3
N#C/C(=C\c1ccc(-c2ccc(Br)cc2)o1)c1nc(-c2cccs2)cs1 :: 97
Cc1cc(N(CCNc2ccnc3cc(Cl)ccc23)Cc2ccco2)nc(Cl)n1 :: -26.2
CC1=CC(=O)N(c2cccc3c(N4C(=O)C=C(C)C4=O)cccc23)C1=O :: 4.75
O=C(/C=C/c1ccc2ccccc2c1)Nc1ncc(Cc2ccccc2)s1 :: 65.8
CCCCC[C@H]1C/C=C2/C(=O)C(Cl)=C[C@@H]2C/C=C\CCCC(=O)O1 :: -2.82

Can you look up growth on MOLT-4 leukemia for N=C(N)c1ccc(S(N)(=O)=O)cc1 ?
102

---

system: SK-MEL-2 melanoma; assay: NCI-60 one-dose screen, 48 h (100 = growth as untreated, 0 = no growth, -100 = all killed); settings: 10 µM unless noted
About 83,000 compounds went through this panel and 20% of them were active in at least one assay; those are over-represented in the sample as a whole.
assay_endpoint: growth (%)
Unit % implied. Number only.

Before answering, review these 6 worked examples.
O=C1/C(=C\c2ccco2)SC(=S)N1CCc1ccc(O)cc1 :: 104
C=C1C(=O)O[C@H]2[C@H]1CC/C(COC(=O)NCCc1c[nH]c3ccccc13)=C\CC[C@@]1(C)O[C@@H]21 :: 61.5
Cc1csc(Nc2nc(-c3cccc(Br)c3)nc(C(Cl)(Cl)Cl)n2)n1 :: 104
O=c1[nH]ncc(Br)c1Br :: 45.1
C[C@H]1OC(=O)/C=C/[C@@H](O)[C@@H](O)CCCCCCCC[C@@H]1O :: 102
COc1ccc(NC(=S)N/N=C/c2ccccc2SSCCC(=O)OC[C@H]2O[C@H](O)[C@H](O)[C@@H](O)[C@@H]2O)cc1 :: 78.9

Dear colleague, I am looking for the recorded growth of the following molecule: Cc1cc(N(CCCNc2ccnc3cc(Cl)ccc23)Cc2ccco2)nc(Cl)n1
65.4

---

tested on: BT-549 breast; experiment: NCI-60 one-dose screen, 48 h (100 = growth as untreated, 0 = no growth, -100 = all killed); conditions: 10 µM unless noted
The panel holds about 83,000 compounds, 20% with a hit somewhere; the sample as a whole holds those more often.
assay_endpoint: growth (%)
Unit % implied. Number only.

COc1ccc(NC(=S)N/N=C/c2ccccc2SSCCC(=O)OC[C@H]2O[C@H](O)[C@H](O)[C@@H](O)[C@@H]2O)cc1 :: 68.9
Nc1nc2c(c(=O)[nH]1)C(c1ccc3c(c1)OCO3)C=C(C(=O)O)N2 (stereo unspecified) :: 91.9
COc1ccc(C2c3ccccc3NC(=O)N2C2CCN(C)CC2)c(OC)c1 (stereo unspecified) :: 107
CCc1nnc(NC(=O)c2ccoc2COc2ccccc2)s1 :: 51.2

Dear colleague, I am looking for the recorded growth of the following compound: O=C1CCN2C(=O)Nc3ccccc3C2C1 (stereo unspecified)
109

Dear colleague, I am looking for the recorded growth of the following compound: Nc1c(C(=O)Nc2cccc3ccccc23)sc2nc3c(cc12)CCCC3
64.6

Dear colleague, I am looking for the recorded growth of the following compound: COc1ccc(C2C(C#N)=C(N)Oc3c2sc2c(F)cccc32)cc1 (stereo unspecified)
37

Dear colleague, I am looking for the recorded growth of the following compound: CN(C)CCCC1(c2ccc(F)cc2)OCc2cc(-c3ccc(C(F)(F)F)nc3)ccc21 (stereo unspecified)
94.7

Dear colleague, I am looking for the recorded growth of the following compound: O=C(c1ccccc1)C(CN1CCOCC1)c1ccccc1 (stereo unspecified)
30.2

Dear colleague, I am looking for the recorded growth of the following compound: CCSc1ncnc2c1ncn2C1OC(CO)C(O)C1O (stereo unspecified)
49

Dear colleague, I am looking for the recorded growth of the following compound: COc1ccc(-c2cc(/C=C/C(=O)c3ccc(N)cc3)[nH]n2)cc1
9.81

---

system: HOP-92 NSCLC; experiment: NCI-60 one-dose screen, 48 h; details: 10 µM unless noted
Compounds without any hit were thinned out: in the full panel of roughly 83,000, 20% have a hit. Calls of active or inactive are those of the source. The calls were made as follows: active = growth percent below 10; inactive = the rest.
Output constraint: value belongs to true (1) for active, false (0) for inactive

Consider the following illustrative entries.
O=S(=O)(NCCNc1cc(-c2cn(-c3ccccc3)nc2-c2cccc(O)c2)ccn1)c1ccc(C(F)(F)F)cc1 :: false (0)
Fc1ccc2[nH]cc(-c3nc(-c4c[nH]c5ncccc45)cs3)c2c1 :: false (0)
Cc1ccc(-c2nc([P+](c3ccccc3)(c3ccccc3)c3ccccc3)c(N3CCOCC3)o2)cc1 :: true (1)
CCCCn1c(-c2ccc(O)cc2)cn2c3c(=O)[nH]c(=O)n(C)c3nc12 :: false (0)
COc1ccc2c(c1)c(-c1nc(-c3c[nH]c4ncccc34)cs1)cn2CCN :: false (0)

Recorded test outcome, item Clc1ccc2c(NCCNc3nc(-c4ccccc4)cc(-c4ccccc4)n3)ccnc2c1
true (1)

Recorded test outcome, item CC1(c2ccccc2)OC1C(=O)O (stereo unspecified)
false (0)

Recorded test outcome, item CC(=O)O[C@H]1CC[C@@]2(C)C(=CC[C@@H]3[C@@H]2CC[C@]2(C)C(=O)N(O)C(=O)C[C@@H]32)C1
false (0)

Recorded test outcome, item O=C(O)c1cccc2c1C(=O)N(c1ccc3c(c1)Cc1ccccc1-3)C2=O
false (0)

Recorded test outcome, item COC(=O)[C@]12CC[C@@H](C)[C@H](C)[C@@H]1C1=CC[C@@H]3[C@@]4(C)C[C@@H](OC(C)=O)[C@H](OC(C)=O)[C@@](C)(COC(C)=O)[C@@H]4[C@H](O)C[C@@]3(C)[C@]1(C)CC2
false (0)

Recorded test outcome, item COC(=O)c1cc(=O)nc(N/N=C/c2ccc(C)cc2)s1
false (0)

Recorded test outcome, item C=C(C)[C@@H]1CC[C@]2(/C=N/Nc3ccncc3)CC[C@]3(C)[C@H](CC[C@@H]4[C@@]5(C)CCCNC(C)(C)[C@@H]5CC[C@]43C)[C@@H]12
false (0)

Recorded test outcome, item Cn1cc(-c2nc(-c3c[nH]c4ncccc34)cs2)c2ccccc21
false (0)

Recorded test outcome, item O=C1CCN2C(=O)Nc3ccccc3C2C1 (stereo unspecified)
false (0)

Recorded test outcome, item COc1cc2nc(Cl)nc(Nc3cccc(C(=O)/C=C/c4ccc(F)cc4)c3)c2cc1OC
false (0)

Recorded test outcome, item CN(C)c1ccc(N)c2ccccc12
false (0)

Recorded test outcome, item O=C(NCN1C(=O)c2cccc3cccc(c23)C1=O)N1CCC(Cc2ccccc2)CC1
false (0)

Recorded test outcome, item COc1ccc(-n2c(/C=C/c3ccc(O)c(OC)c3)cc(/C=C/c3ccc(O)c(OC)c3)nc2=O)cc1
false (0)

Recorded test outcome, item Cc1ccc(-c2ccc(/C=C(\C#N)c3nc(-c4ccco4)cs3)o2)cc1
false (0)

Recorded test outcome, item Cn1cc(-c2csc(-c3cn(CCN)c4ccc(Br)cc34)n2)c2cccnc21
false (0)

Recorded test outcome, item NC1=C(C/C(N)=N\O)C(c2ccccc2Cl)c2c(ccc3ccccc23)O1 (stereo unspecified)
false (0)

Recorded test outcome, item NC1=NN(c2ccccc2)C(=O)/C1=C/c1ccc(Cl)cc1
false (0)

Recorded test outcome, item COC(=O)[C@]12CC[C@@H](C)[C@H](C)[C@@H]1C1=CC[C@@H]3[C@@]4(C)C[C@@H](OC(C)=O)[C@H](O)[C@@](C)(COC(C)=O)[C@@H]4[C@H](O)C[C@@]3(C)[C@]1(C)CC2
true (1)

Recorded test outcome, item CCCCC[C@H]1C/C=C2/C(=O)C(Cl)=C[C@@H]2C/C=C\CCCC(=O)O1
true (1)

---

system: RXF 393 renal; assay: NCI-60 one-dose screen, 48 h; conditions: 10 µM unless noted
About 83,000 compounds went through this panel and 20% of them were active in at least one assay; those are over-represented in the sample as a whole. Active and inactive are the calls of the source. The calls were made as follows: active = growth percent below 10; inactive = the rest.
Output constraint: value belongs to TRUE = active, FALSE = inactive

O=C(NCN1C(=O)c2cccc3cccc(c23)C1=O)N1CCC(Cc2ccccc2)CC1 :: FALSE

Recorded test outcome, item Oc1cccc2ccc(N/N=C/c3cc(CN4CCCCC4)c(O)c4ncccc34)nc12
TRUE

Recorded test outcome, item Cc1cc(N2CCCCC2)nc(N(CCNc2ccnc3cc(Cl)ccc23)Cc2ccco2)n1
FALSE

Recorded test outcome, item N=C(N)c1ccc(-c2ccc(-c3cc(F)cc(F)c3)o2)nc1
FALSE

Recorded test outcome, item COc1ccc2c(c1)C/C(=C\c1cc(-c3cc(OC)c(OC)c(OC)c3)n[nH]1)C2=O
FALSE

Recorded test outcome, item CCN1CCN(C(=O)[C@]23CCC(C)(C)C[C@H]2C2=CC[C@@H]4[C@@]5(C)CC/C(=N/O)C(C)(C)[C@@H]5CC[C@@]4(C)[C@]2(C)CC3)CC1
FALSE

Recorded test outcome, item OCCNc1nc(Nc2ccc(Cl)c(Cl)c2)nc2ccccc12
FALSE

Recorded test outcome, item Brc1ccc2c(c1)c(-c1nc(-c3c[nH]c4ncccc34)cs1)cn2CCCN1CCCCC1
FALSE
